- subject of test: NCp15 (p9 + p6) (HIV-1, UniProt P12493 378-500)
- test name: fluorescence anisotropy salt titration; Kd extrapolated to 1 M NaCl; Zeff 3.8 ± 0.7
- experimental parameters: protein: recombinant; tags: none (Trx tag removed by TEV); label: 5' FAM; single strand
readout type: Kd
Write the quantity with the unit trailing the number.

// Kd value for ACTGGACCAAATTCTAATGTGTGTGTACGAAGCATAGCGG (ssDNA) [40-nt ssDNA] : 78 µM
